test system: Trypanosoma brucei; experiment: Trypanosoma brucei 72 hour study; assay type: functional, organism-based; design: scale not given: in the data most compounds retested in dose-response had high values; conditions: 30.3 µM; […]
In all, about 66,000 compounds went through this assay and about 960 (1.5%) showed an effect of 50% or more. For the sample, strong results were picked, then their nearest neighbours and some compounds at random.
Endpoint: Percent Effect (%)
Could you give me the number in %? Just the number is fine.

Here is how some molecules turned out for Percent Effect.
Molecule	Units label	Percent Effect
O=c1[nH]c(-c2ccncc2)ncc1-c1ccnc(NC2CCCCC2)n1	%	-18.66
CN(Cc1ccc(N(C)C)cc1)C(=O)CSc1ccc(Br)cc1	%	12.7
Cc1nc2c(cc1C(=O)O)CCN(Cc1ccsc1)CC2.O=C(O)C(F)(F)F.O=C(O)C(F)(F)F	%	-6.304
COCCn1c(=O)n(C)c(=O)c2ccc(C3CCN(C(C)=O)CC3)nc21	%	24.28
NC[C@H]1CC[C@H](C(NC(=O)CC2CCCC2)c2ccccn2)CC1 (some centres not stated)	%	-41.17

Requested read-out: Percent Effect. Entry: Cc1ccc(CN(CCCn2ccnc2)Cc2c(F)cccc2F)s1.O=C(O)CC(O)(CC(=O)O)C(=O)O
-13.01

And what about the molecule COc1ccc2[nH]cc(-c3ccnc(NC4CCCC4)n3)c2c1 ?
82.65

Now consider Cc1noc(C)c1CN1CCOCC12CCN(c1cnccn1)CC2.O=C(O)C(F)(F)F and answer again.
-24.7

And what about the molecule CC(=O)N1N=C(c2ccccc2)OC1C(=O)NCCc1ccc(C)cc1 (configuration not stated) ?
99.94

Follow-up item: O=C(NC1CCN(Cc2cccc3c2OCCO3)CC1)c1cccs1
7.019

// repeat for CC(=O)N1N=C(c2ccccc2)OC1C(=O)NCCc1ccc(O)cc1 (configuration not stated) and report
-23.74

Follow-up item: Cc1ccoc1C(=O)NC1CCN(Cc2ccccc2F)CC1
4.829

----------
tested on: Trypanosoma brucei; assay: Trypanosoma brucei 72 hour study; assay type: functional, organism-based; set-up: scale not given: in the data most compounds retested in dose-response had high values; settings: 30 µM; 30.03 µM
The campaign covered roughly 66,000 compounds. About 960 (1.5%) showed an effect of 50% or more. The full list was thinned out, with strong results kept by preference.
Endpoint: Percent Effect (%)
Unit % implied. Number only.

# Percent Effect lookup, item O=C(O)C(F)(F)F.O=C(c1ccc(F)cc1)N1CCC2(CCN(Cc3ccccn3)C2=O)C1 (stereo not given)
-50.24

Next up: CC(CNCc1ccc2c(c1)n(C)c(=O)n2C)Oc1ccccn1.Cl (stereo not given)
-26.55

Next record, please: O=C(O)C(F)(F)F.c1cncc(CN2Cc3nccn3CC(Cn3cncn3)C2)c1 (stereo not given)
-73.02

Would you kindly repeat that for Cl.O=C(Nc1cc(C(F)(F)F)c[nH]c1=O)C1CCCCN1 (stereo not given) ?
4.306

What do you get for Cc1ccc(Cl)c(CN2CCC(c3nccn3C(C)C)CC2)c1F ?
104.1

----------
tested on: Trypanosoma brucei; test: Trypanosoma brucei 72 hour study; type: functional, organism-based; set-up: scale not given: in the data most compounds retested in dose-response had high values; details: 30.3 µM; […]
About 960 (1.5%) of roughly 66,000 compounds showed an effect of 50% or more. The sample as a whole holds a higher share of strong results than the screen did.
Endpoint: Percent Effect (%)
API: value field is a number in %; no unit string.

Look over these answered cases.
Compound	Endpoint	Units label	Reported result
c1ccc(-c2nc(CN3CCCC(Cn4cncn4)C3)cs2)cc1 (stereo unspecified)	Percent Effect	%	51.63
O=C(Cc1ccccn1)N1C[C@H](OCc2cccnc2)[C@H]2COC[C@H]21.O=C(O)C(F)(F)F.O=C(O)C(F)(F)F	Percent Effect	%	-31.71
O=C(O)C(F)(F)F.O=C(O)C(F)(F)F.O=C(O)CN1CCCC2(CCN2Cc2cccc(F)c2)C1 (stereo unspecified)	Percent Effect	%	-49.81
Cc1ccc(CN2CC[C@H]3[C@H](CC(Cn4cccn4)N3C)C2)s1.O=C(O)C(F)(F)F.O=C(O)C(F)(F)F.O=C(O)C(F)(F)F (stereo partly specified)	Percent Effect	%	2.612

# query: Percent Effect of entry Cc1c(Br)cc2c(c1C)OCC(N(C)C)C2=O (stereo unspecified)
0.8254

Note, next up: CC1c2ncc(CNC(=O)C3CC3)n2CCN1Cc1ccsc1.O=C(O)C(F)(F)F (stereo unspecified)
-8.055

Try CC1c2ncc(Cn3cccn3)n2CCN1Cc1ccc(F)cc1.O=C(O)C(F)(F)F (stereo unspecified) next.
6.386

Quick one: CNCC(=O)N1CCCC1c1cncc(Oc2ccc(F)cc2)n1.Cl (stereo unspecified)
-5.938

Now the compound Cn1ncc2c(NC3CCSC3)nc(-c3ccncc3)nc21 (stereo unspecified)
38.84

Next compound: CCN(CC)C1COc2c(cc(Br)c(C)c2Br)C1=O (stereo unspecified)
52.72

CC(C)CN1C(=O)C2(CCN(Cc3ccoc3)C2)c2ccccc21.O=C(O)C(F)(F)F (stereo unspecified) ?
-10.51

----------
system: Trypanosoma brucei; assay: Trypanosoma brucei 72 hour study; type: functional, organism-based; parameters: scale not given: in the data most compounds retested in dose-response had high values; conditions: 30.3 µM; […]
The whole screen tested about 66,000 compounds, of which about 960 (1.5%) showed an effect of 50% or more. The sample as a whole holds a higher share of strong results than the screen did.
This listing pairs compounds with measured Percent Effect.
# number only, unit % dropped from output

I am curious: what Percent Effect value has been reported for CCCN1CCC(Nc2cc(-c3ccccc3)ccc2OC)CC1 ?
57.37

Further, for CC(NC(=O)C(C)(C)C)c1cc(O)nc(-c2cccnc2)n1 (stereo unspecified) ?
-7.147

Please answer likewise for Cc1cnc(C(=O)N2CCC(COCc3ccccc3)C2)cn1 (stereo unspecified)
-6.003

Can you handle CC(=O)N1CCC(c2c(CN(C)C)cnc3cc(C)nn23)CC1 next?
-17.17

Could you do the same for CS(=O)(=O)NCC1CCCN(C(=O)c2cc3ccccc3o2)C1 (stereo unspecified) , please?
1.962

What would you report for O=C(C1CCOCC1)N1CCc2onc(COc3cccnc3)c2C1.O=C(O)C(F)(F)F ?
-638.1

----------
tested on: Trypanosoma brucei; experiment: Trypanosoma brucei 72 hour study; assay type: functional, organism-based; set-up: scale not given: in the data most compounds retested in dose-response had high values; conditions: 30.3 µM; […]
Screen size: about 66,000 compounds; about 960 (1.5%) showed an effect of 50% or more. What follows is part of a selection rich in strong results, with near analogues and random picks from the rest.
Measured Percent Effect accompanies every entry in the list below.
Supply the numeric figure in %, leaving out any unit text.

Example entries and their recorded answers appear below.
Compound	Percent Effect / %
Cc1cc(C)c(CNC(=O)NCc2ccc(F)cc2)c(=O)[nH]1	-10.32
c1cc(-c2c[nH]nc2C2CCCCC2)nc(N2CCCCCC2)n1	99.82
O=C(C1CCCC1)N1CCC2(CC1)COCCN2CC1CC1.O=C(O)C(F)(F)F	-13.33
CCNC(=O)[C@@H]1C[C@H](N)CN1C(=O)c1c[nH]c2ccccc12	-39.66

Could you now consider this next compound?
Give its Percent Effect value. Item: c1cc(-c2cn3nccc3nc2C2CCCCC2)nc(N2CCCC2)n1
41.66

----------
system: Trypanosoma brucei; test: Trypanosoma brucei 72 hour study; format: functional, organism-based; parameters: scale not given: in the data most compounds retested in dose-response had high values; conditions: 30.3 µM; […]
Out of some 66,000 compounds screened, about 960 (1.5%) showed an effect of 50% or more. Many of the other results were omitted from the sample, so strong results are more common in it than they were.
Endpoint: Percent Effect (%)
Response body: numeric value in %, unit text excluded.

Compound	Endpoint	Reported result
CNC(=O)CN1CCCC(Cc2ccccc2OC)C1 (stereo not given)	Percent Effect	99.76

Name the recorded Percent Effect for c1ccc(-c2nc(CNCC3CCCN3c3cccnn3)co2)cc1 (stereo not given) .
97.98

Param item: O=C(O)C(F)(F)F.c1cncc(N2CCOCC3(CCCN(c4nncs4)C3)C2)c1 (stereo not given)
1.277

Request: O=C(O)C(F)(F)F.O=C1CC[C@H]2[C@H](CCN2S(=O)(=O)C2CC2)N1CCN1CCCC1
-16.69

Consider next the compound Cc1occc1C(=O)N1CCC2(CC1)CC(OCc1ccccn1)CO2.O=C(O)C(F)(F)F (stereo not given) in the same way.
-782.3

----------
Measured Percent Effect values are reported for all entries that follow.
system: Trypanosoma brucei; experiment: Trypanosoma brucei 72 hour study; assay type: functional, organism-based; parameters: scale not given: in the data most compounds retested in dose-response had high values; conditions: 10 mM as filed; unlikely as a test dose
The whole screen tested about 66,000 compounds, of which about 960 (1.5%) showed an effect of 50% or more. The sample holds strong results, similar compounds and a random draw of the others, so the mix is not that of the screen.
Reply numerically in %, unit not repeated.

Quick one: Percent Effect for COc1cccc(N2CCC(CNCc3cccc(C#N)c3)C2)c1 (centres undefined) ?
-19.99

Now the compound Cc1nc(C)n(CC2CCCCN2Cc2nc3ccccc3o2)n1 (centres undefined)
-25.93

# iterate: COc1ccccc1N1CCC(CNCc2ccc(C#N)cc2)C1 (centres undefined)
66.86

Entry COc1ccc(Cl)cc1NCC(=O)NCCNc1ncccn1 please
-45.51

Now consider Cl.O=C(O)[C@@H]1CCCN1c1nccc(Nc2ccccc2)n1 .
-16.56

Next compound: Cn1c(C2CC2)nc2c1CCN(CCOc1ccccc1C#N)C2
81.28

// next record Cc1cc(C)n(CC2CCCN2Cc2ncc(C(C)(C)C)o2)n1 (centres undefined)
-8.311

Param item: Cc1cnn(CC2CCCN2Cc2nc(C)c3ccccc3n2)c1 (centres undefined)
-68.59

And for Cc1ccc(NC2CCN(C(=O)CCc3ccncc3)CC2)nn1 ?
-59.85
